Target: T1, TLR7 F507L (Macaca mulatta, UniProt B3Y653 27-839, F507L)
T1 sequence: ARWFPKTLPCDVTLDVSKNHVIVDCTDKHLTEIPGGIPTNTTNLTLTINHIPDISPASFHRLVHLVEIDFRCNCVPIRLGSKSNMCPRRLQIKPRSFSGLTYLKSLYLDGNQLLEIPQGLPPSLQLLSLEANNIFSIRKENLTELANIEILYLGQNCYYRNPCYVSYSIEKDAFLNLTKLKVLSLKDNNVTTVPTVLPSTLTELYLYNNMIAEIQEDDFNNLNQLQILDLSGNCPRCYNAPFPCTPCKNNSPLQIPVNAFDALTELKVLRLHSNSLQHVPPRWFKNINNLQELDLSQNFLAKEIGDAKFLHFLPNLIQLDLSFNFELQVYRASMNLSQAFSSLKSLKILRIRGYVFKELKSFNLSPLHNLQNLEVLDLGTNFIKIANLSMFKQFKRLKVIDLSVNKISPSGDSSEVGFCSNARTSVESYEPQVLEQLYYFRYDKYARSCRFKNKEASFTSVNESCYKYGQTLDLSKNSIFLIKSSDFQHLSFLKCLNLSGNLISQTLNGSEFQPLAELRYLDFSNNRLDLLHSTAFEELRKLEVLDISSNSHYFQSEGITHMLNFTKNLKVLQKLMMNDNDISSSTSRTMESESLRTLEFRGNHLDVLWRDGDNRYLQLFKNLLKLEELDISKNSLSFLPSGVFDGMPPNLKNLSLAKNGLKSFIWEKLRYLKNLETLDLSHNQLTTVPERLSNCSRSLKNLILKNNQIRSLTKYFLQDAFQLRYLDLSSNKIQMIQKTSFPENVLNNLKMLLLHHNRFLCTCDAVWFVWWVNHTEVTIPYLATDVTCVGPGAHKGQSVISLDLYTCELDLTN
Assay: SPR; mean computed from runs 16±2, 18±2, 20±6; SPR with recombinant TLR7/TLR8; buffer, pH and temperature not in the material
Conditions: protein: recombinant; chain copies: 2; single-stranded
reported_metric: Kd (µM)
Answer in µM, number only, no unit symbol.

Per the record, GUC (XNA, 2'-OMe G1, RNA U2 C3; phosphorothioate linkages) [mGrUrC PS] has Kd of 18
